These measurements were taken from the supplement of paper PMC10567573.

B1: MTMR15 (parent)
chain: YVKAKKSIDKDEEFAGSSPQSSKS

Variants of: B1
Assay: protein stability index of a GFP-peptide fusion (GPS, HEK-293T) (PSI 1-6); higher = more stable;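 also: lentivirally expressed fusions sorted by FACS into six bins by GFP to DsRed ratio, PSI derived from sequencing read proportions per bin multiplied by bin number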
Conditions: c terminus: a fixed tail appended
Catalogue of protein stability index values

{"change": "D9A", "protein stability index": 2.92}
{"change": "S7T", "protein stability index": 2.96}
{"change": "S21P", "protein stability index": 2.95}
{"change": "K23L", "protein stability index": 3}
{"change": "S18Q", "protein stability index": 2.93}
